Data provenance is the supplement of paper PMC13380429.

# System: Calu-3
# measurement.description: cell viability relative to DMSO; higher = less toxic
# setup.conditions: 72 h; 10000 nM
Reported cell viability values are given for each entry in this list.

| compound | cell viability (%) |
| --- | --- |
| COc1cc(N)cn[n+]1-c1ccccc1 | 96.6 |
| CCCn1c(=O)c(C)cn2nc(N)nc12 | 99 |
| Nc1cc(Cl)c(N=C2NCCN2)c(Cl)c1 | 98.2 |
| O=C(CBr)N1CC([N+](=O)[O-])([N+](=O)[O-])C1 | 100 |
| CC1(C)CCC(C)(C)c2cc(C3(c4ccc5cc(C(=O)O)ccc5c4)SCCS3)ccc21 | 98.8 |
| COc1cc2nccc(Oc3ccc(NC(=O)Nc4ccc(F)cc4F)c(F)c3)c2cc1OC | 93.1 |
| O=C(O)c1ccc(/C=C2\SC(=S)N(c3cccc(C(F)(F)F)c3)C2=O)cc1 | 116 |
| Clc1ccc(C(Cn2ccnc2)OCc2ccc(Sc3ccccc3)cc2)c(Cl)c1 (centres undefined) | 85.7 |
| CCC[C@@H]1CC(=O)N([C@@H](CC)C(N)=O)C1 | 97.2 |
| CCCN1CCC[C@@H]2Cc3n[nH]cc3C[C@H]21 [quinpirol-(-)] | 95.9 |
| O=C([O-])CN1CCN(CC(=O)[O-])CCN([C@H](CO)[C@H](O)CO)CCN(CC(=O)[O-])CC1.[Gd+3] (racemic) | 98.4 |
| CC1(C)Oc2ccc(C#N)cc2[C@H](N(Cc2ncc[nH]2)c2ccc(Cl)cc2)[C@H]1O | 99.2 |
| Cc1cn([C@@H]2C[C@@H](O)[C@H](CO)O2)c(=O)[nH]c1=O | 114 |
| NC(=O)CNCCC(c1ccccc1)c1ccccc1 [N20C] | 106 |
| O=c1[nH]c2ccccc2n1CCCN1CCC(n2c(=O)[nH]c3cc(Cl)ccc32)CC1 | 101 |
| Cc1ccc(O)c(N=Nc2ccccc2)n1 | 92.8 |
| Cn1cc([S+](C)[O-])c(=O)c2ccc(F)cc21 (centres undefined) | 110 |
| COc1ccc(-n2c(SCc3nc(-c4ccc(C)cc4)no3)nnc2-c2ccncc2)cc1 | 70.8 |
| COc1c(O[C@@H]2O[C@H](CO)[C@@H](O)[C@H](O)[C@H]2O)cc2c(c1OC)-c1ccc(SC)c(=O)cc1[C@@H](NC(C)=O)CC2 [thiocolchicoside] | 97.8 |

----------
# System: Calu-3
# measurement.description: cell viability relative to DMSO; higher = less toxic
# setup.conditions: 72 h; 1000 nM

| compound | cell viability [%] |
| --- | --- |
| COc1ccc(-n2c(SCc3nc(-c4ccc(C)cc4)no3)nnc2-c2ccncc2)cc1 [JW-74] | 107 |
| CC(C)c1onc(-c2c(Cl)cccc2Cl)c1COc1ccc(/C=C/c2cccc(C(=O)O)c2)c(Cl)c1 [GW-4064] | 102 |
| C=C[C@](C)(O)CC[C@@H]1[C@@]2(C)CCCC(C)(C)[C@@H]2CC[C@@]1(C)O [sclareol] | 104 |
| NCCS [cysteamine] | 99.1 |
| Cn1c(CNc2ccc(C(=N)N)cc2)nc2cc(C(=O)N(CCC(=O)O)c3ccccn3)ccc21 [dabigatran] | 93.7 |
| CCCC(=O)OCOC(=O)C1=C(C)NC(C)=C(C(=O)OC)C1c1cccc(Cl)c1Cl (centres undefined) [cleviprex] | 108 |
| Cn1cc([S+](C)[O-])c(=O)c2ccc(F)cc21 (centres undefined) [flosequinan] | 101 |
| Nc1cc(Cl)c(N=C2NCCN2)c(Cl)c1 [apraclonidine] | 106 |
| C[C@H]1NCc2cc(-c3ccc4c(=O)c(C(=O)O)cn(C5CC5)c4c3OC(F)F)ccc21 [garenoxacin] | 106 |

----------
# System: Vero E6
# measurement.description: cell viability relative to DMSO; higher = less toxic
# setup.conditions: 72 h; 100 nM

| molecule | cell viability / % |
| --- | --- |
| CCCn1c(=O)c(C)cn2nc(N)nc12 | 96 |
| C=CC(=O)Nc1ccc2ncnc(Nc3cccc(Br)c3)c2c1 | 71 |
| Cc1cnc(-c2ccccc2C(C)C)nc1NCc1ccc(-n2ccnn2)cc1 [ML323] | 87.6 |
| CC(NCCC(c1ccccc1)c1ccccc1)c1ccccc1 (centres undefined) [fendiline] | 97.5 |
| CN(C)CCCNC(=O)c1ccc(-c2cc(O)c3ncccc3c2)cc1 [ML324] | 96.2 |
| CCc1nc(N)nc(N)c1-c1ccc(Cl)cc1 [pyrimethamine] | 103 |
| CN1CCN(c2cc(-c3ccccc3)nc(N)n2)CC1 | 90.5 |
| C=C[C@](C)(O)CC[C@@H]1[C@@]2(C)CCCC(C)(C)[C@@H]2CC[C@@]1(C)O [sclareol] | 102 |
| O=C(c1ccc2nccnc2c1)N1CCCCC1 [ampalex] | 98.8 |

----------
# System: U2OS
# measurement.description: relative viability EC50 (midpoint between 100% and the lowest measured viability); higher = less toxic
# setup.conditions: 72 h
Measured relative viability EC50, listed per entry.

| compound | target.entity | relative viability EC50 |
| --- | --- | --- |
| C[N@+]1(CC2CC2)CC[C@]23c4c5ccc(O)c4O[C@H]2C(=O)CC[C@@]3(O)[C@H]1C5 [methylnaltrexone] | U2OS | > 10 µM |
| C[C@H]1NCc2cc(-c3ccc4c(=O)c(C(=O)O)cn(C5CC5)c4c3OC(F)F)ccc21 [garenoxacin] | U2OS | > 10 µM |
| O=C(O)CSc1nnc(Br)n1-c1ccc(C2CC2)c2ccccc12 [lesinurad] | U2OS | > 10 µM |
| Cc1cc(NC(=O)C(c2ccccc2)N2CCCc3ccccc32)no1 (centres undefined) [CIM-0216] | U2OS | > 10 µM |
| NS(=O)(=O)NCCNc1nonc1/C(=N/O)Nc1ccc(F)c(Br)c1 | U2OS | > 10 µM |
| Cc1ccc(/C=C2/C(=O)C3(C)CCC2C3(C)C)cc1 (centres undefined) [3-(4-methylbenzylidene)camphor] | U2OS | > 10 µM |
| Nc1ccc(F)cc1NC(=O)c1ccc(CNC(=O)/C=C/c2cccnc2)cc1 [chidamide] | U2OS | 1.56 µM |
| Cc1ccc(-c2csc3ncnc(SCCC(=O)O)c23)cc1 [TTP-22] | U2OS | > 10 µM |
| CC(C)NCCN(C(C)C)S(=O)(=O)c1ccc(Cl)cc1Cl [RN-1734] | U2OS | > 10 µM |

----------
# Test system: Caco-2
# measurement.description: cell viability relative to DMSO; higher = less toxic
# setup.conditions: 72 h; 10 nM
Form field: cell viability (one value per entry).

| molecule | unit.name | cell viability |
| --- | --- | --- |
| Cc1ccc2c(c1)[C@H]1CN(C)CC[C@H]1N2 [stobadine] | % | 91.9 |
| O=C(O)C1=CCCN(CCOC(c2ccc(C(F)(F)F)cc2)c2ccc(C(F)(F)F)cc2)C1 [CI-966] | % | 101 |
| CC(NCCC(c1ccccc1)c1ccccc1)c1ccccc1 (centres undefined) [fendiline] | % | 99.8 |
| Cn1c(CNc2ccc(C(=N)N)cc2)nc2cc(C(=O)N(CCC(=O)O)c3ccccn3)ccc21 [dabigatran] | % | 97.1 |
| O=C(Cc1cccc(OC(F)(F)F)c1)Nc1ccc(CCCCc2nnc(NC(=O)Cc3ccccn3)s2)nn1 [CB-839] | % | 98.7 |
| O=C(O)Cc1cc2ccccc2nc1C(=O)O [CCMQ] | % | 111 |
| N#Cc1ccc(Cn2cncc2CN2CCN(c3cccc(Cl)c3)C(=O)C2)cc1 | % | 106 |
| CNCC[C@H](Oc1cccc2ccccc12)c1cccs1 [duloxetine] | % | 100 |
| CCCCCCCCCCCCC/C=C/[C@@H](O)[C@@H](N)CO[P@](=O)(O)OCC[N+](C)(C)C [sphingosylphosphorylcholine] | % | 90.4 |

----------
# System: Vero E6
# measurement.description: cell viability relative to DMSO; higher = less toxic
# setup.conditions: 72 h; 10000 nM

| compound | unit.name | cell viability |
| --- | --- | --- |
| Cn1cc([S+](C)[O-])c(=O)c2ccc(F)cc21 (stereo unspecified) [flosequinan] | % | 96.4 |
| O=C(c1cc(S(=O)(=O)Nc2ccccc2F)c(F)cc1Cl)N1CCN2CCC[C@@H]2C1 [ABT-639] | % | 100 |
| CCCN(CCC)C(=O)C(CCC(=O)OCCCN1CCN(CCOC(=O)Cc2c(C)n(C(=O)c3ccc(Cl)cc3)c3ccc(OC)cc23)CC1)NC(=O)c1ccccc1 (stereo unspecified) [proglumetacin] | % | 102 |
| CN(C)CCCNC(=O)c1ccc(-c2cc(O)c3ncccc3c2)cc1 [ML324] | % | 58.1 |
| C[S+](C)CC[C@H](N)C(=O)O [cabagin] | % | 108 |
| COc1cc(C[C@H]2C(=O)OC[C@@H]2Cc2ccc(OC)c(OC)c2)ccc1O [arctigenin] | % | 95 |
| O=c1cc[nH]c(=O)[nH]1 [uracil] | % | 112 |
| Nc1ccc(F)cc1NC(=O)c1ccc(CNC(=O)/C=C/c2cccnc2)cc1 [chidamide] | % | 67.5 |
| COc1cc2c(cc1OC(C)C)[C@H](c1ccc(Cl)cc1)N(c1ccc(N(C)C[C@H]3CC[C@H](N4CCN(C)C(=O)C4)CC3)cc1)C(=O)C2 [CGM097] | % | 46.9 |
| CN[C@@H](C)C(=O)N[C@H](C(=O)N1CCC[C@H]1C(=O)Nc1snnc1-c1ccccc1)C1CCCCC1 [GDC-0152] | % | 106 |
| Cc1ccc(O)c(N=Nc2ccccc2)n1 [SIB-1757] | % | 92.5 |
